# TARGET UNDER TEST: TtCE15A (Teredinibacter turnerae, UniProt C5BN23, F174D)
# Construct: gene TERTU_0517
# Sequence (C5BN23 entry or part of it F174D): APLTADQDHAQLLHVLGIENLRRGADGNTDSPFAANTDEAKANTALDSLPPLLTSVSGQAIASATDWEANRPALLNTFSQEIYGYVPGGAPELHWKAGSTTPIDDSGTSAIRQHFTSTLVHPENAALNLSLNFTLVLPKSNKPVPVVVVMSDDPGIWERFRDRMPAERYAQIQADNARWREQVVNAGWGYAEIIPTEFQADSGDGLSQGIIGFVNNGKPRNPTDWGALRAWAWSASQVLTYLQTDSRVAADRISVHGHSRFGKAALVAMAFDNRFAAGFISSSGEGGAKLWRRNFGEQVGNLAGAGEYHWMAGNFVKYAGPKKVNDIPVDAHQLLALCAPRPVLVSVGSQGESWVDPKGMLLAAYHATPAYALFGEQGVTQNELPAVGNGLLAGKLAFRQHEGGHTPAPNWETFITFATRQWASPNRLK
# PROCEDURE DETAILS: inhibition of BnzGlcA hydrolysis, coupled K-URONIC assay
# Format: biochemical
# REPORTED CONDITIONS: read-out: SA
# Source text: inhibition of BnzGlcA hydrolysis, coupled K-URONIC assay on TtCE15A
MEASURE: IC50 (µM)
Give bare numbers, in µM.

## Task Given the molecule `COc1cc(/C=C/C(=O)O)cc(OC)c1O` , what is its reported IC50?
## Result 770

----------
# TARGET UNDER TEST: TtCE15A (Teredinibacter turnerae, UniProt C5BN23)
# Construct: gene TERTU_0517
# Sequence (C5BN23 entry or part of it): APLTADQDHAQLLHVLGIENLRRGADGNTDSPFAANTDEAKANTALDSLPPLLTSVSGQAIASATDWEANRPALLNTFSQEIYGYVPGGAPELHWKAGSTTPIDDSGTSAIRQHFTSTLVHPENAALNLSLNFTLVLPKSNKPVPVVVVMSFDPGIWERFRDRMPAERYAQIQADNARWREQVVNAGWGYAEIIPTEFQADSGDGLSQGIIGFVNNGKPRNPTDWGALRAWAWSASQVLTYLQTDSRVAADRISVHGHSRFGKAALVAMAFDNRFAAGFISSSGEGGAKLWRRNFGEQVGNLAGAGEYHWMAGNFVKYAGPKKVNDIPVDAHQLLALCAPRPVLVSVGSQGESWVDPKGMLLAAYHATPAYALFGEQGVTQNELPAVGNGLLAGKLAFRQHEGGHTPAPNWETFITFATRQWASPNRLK
# PROCEDURE DETAILS: inhibition of BnzGlcA hydrolysis, coupled K-URONIC assay
# Assay type: biochemical
# REPORTED CONDITIONS: read-out: pCoA
# From the text: inhibition of BnzGlcA hydrolysis, coupled K-URONIC assay on TtCE15A
MEASURE: pIC50
Give bare numbers, as −log10 of the molar value.

## Task Quick check: pIC50 on TtCE15A (Teredinibacter turnerae, UniProt C5BN23), item `O=C(O)/C=C/c1ccc(O)cc1` ?
## Result 3.08

----------
# TARGET UNDER TEST: TtCE15A (Teredinibacter turnerae, UniProt C5BN23, F174D)
# Construct: gene TERTU_0517
# PROCEDURE DETAILS: inhibition of BnzGlcA hydrolysis, coupled K-URONIC assay
# Assay type: biochemical
# REPORTED CONDITIONS: read-out: FA
MEASURE: IC50 (µM)
Answers are plain numbers, in µM.

## Task Find the recorded IC50 belonging to `COc1cc(/C=C/C(=O)O)ccc1O` and report it.
## Result 400

----------
# TARGET UNDER TEST: TtCE15A (Teredinibacter turnerae, UniProt C5BN23, F174A)
# Construct: gene TERTU_0517
# Sequence (C5BN23 entry or part of it F174A): as the sequence (C5BN23 entry or part of it F174D) above, with D152A counted along it
# PROCEDURE DETAILS: inhibition of BnzGlcA hydrolysis, coupled K-URONIC assay
# Format: biochemical
# REPORTED CONDITIONS: read-out: pCoA
MEASURE: pIC50
Answers are plain numbers, as −log10 of the molar value.

## Task What does the data say about its pIC50? Entry: `O=C(O)/C=C/c1ccc(O)cc1`
## Result 2.32

----------
# TARGET UNDER TEST: TtCE15A (Teredinibacter turnerae)
# Construct: gene TERTU_0517
# PROCEDURE DETAILS: inhibition of BnzGlcA hydrolysis, coupled K-URONIC assay
# Assay type: biochemical
# REPORTED CONDITIONS: read-out: SA
MEASURE: pIC50
Answers are plain numbers, as −log10 of the molar value.

## Task Recall the recorded pIC50 for `COc1cc(/C=C/C(=O)O)cc(OC)c1O` with TtCE15A (Teredinibacter turnerae) and state it.
## Result 3.25
